# assay_name: NCI Yeast Anticancer Drug Screen. Data for the cln2 rad14 strain (AID 165);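 also: 0% = growth equal to vehicle treated cultures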
# measurement_context: S. cerevisiae cln2 rad14 strain, at 5.0 µM (retest, dose inferred, filed as 0.5), stronger effect = higher value
About 79,000 compounds went through this panel and 15% of them were active in at least one assay; those are over-represented in the sample as a whole.
parameter: growth inhibition (%)
Return type: number; implicit unit %.

A selection of reference data follows.
*Q* Sample `Brc1ccc(N=NN2CCCC2)cc1` — what was its growth inhibition?
*A* 36

*Q* // repeat for `Cc1nc2ccc3c(ccc4nc(C)c(N=Nc5ccc(C(=N)N)cc5)c(O)c43)c2c(O)c1N=Nc1ccc(C(=N)N)cc1` and report
*A* -4

*Q* And for `COC(=O)c1ccc(CCC2=CC(=O)C=CC2=O)cc1` ?
*A* 29

*Q* And `Cc1cc2nc(-c3ccccc3[N+](=O)[O-])[nH]c2cc1C` ?
*A* -3

*Q* Would you kindly repeat that for `O=C1CSC(=S)N1Cc1ccncc1` ?
*A* 24

Next:
*Q* Name the reported growth inhibition value associated with the compound CCCCCCCCCCCCCCCC[N+](C)(C)C(C)c1ccccc1 (stereo not drawn)
*A* 99

* * *

# assay_name: NCI Yeast Anticancer Drug Screen. Data for the cln2 rad14 strain (AID 165);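 also: 0% = growth equal to vehicle treated cultures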
# measurement_context: S. cerevisiae cln2 rad14 strain, at 50.0 µM (retest, dose inferred, filed as 5.0)
Compounds without any hit were thinned out: in the full panel of roughly 79,000, 15% have a hit. Calls of active or inactive are those of the source. Rule as the data show it: active = growth inhibition above about 70%; inactive = the rest.
Hello, when you answer, please use one of the following outcomes: T (active), F (inactive)

Below, 8 compounds whose answers are already recorded.
*Q* Hello, I am checking results. What call was entered for CN1C(=S)C(=N)OC1c1ccccc1F (configuration not stated) ?
*A* T

*Q* // repeat for `CCCC(=O)C1=C(O)C(Cc2c(O)c(C)c(O)c(C(=O)CCC)c2O)=C(O)C(C)(C)C1=O` and report
*A* T

*Q* What about this compound? CCC(C(c1ccc(Cl)cc1)c1ccc(Cl)c(Cl)c1)[N+](=O)[O-] (configuration not stated)
*A* F

*Q* Do the same for `CCOC(=O)n1c2ccccc2c(=O)n1CCO` please
*A* F

*Q* // same read-out, input: `CSCCOC(=O)c1cc(NC(=S)c2ccoc2C)ccc1Cl`
*A* T

*Q* # repeat for `Cc1ccccc1N=Nc1c(C)nn(C(N)=S)c1-c1ccccc1`
*A* T

*Q* // query: `COc1ccc([N+](=O)[O-])cc1Nc1c2ccccc2nc2ccccc12`
*A* F

*Q* // repeat for `N=c1c2ccccc2cc2c3ccccc3ccn12` and report
*A* T

More entries:
*Q* Hello, I am checking results. What call was entered for CCCC(C1=C(O)CC(C)CC1=O)C1=C(O)CC(C)CC1=O (configuration not stated) ?
*A* F

*Q* Would you mind doing CC(C)C(Br)CC/C(CBr)=C(\Cl)CCl (configuration not stated) as well?
*A* T

*Q* Now consider `CCOc1ccc(Nc2nc(C)c(C(=O)/C=C/c3ccc(Cl)cc3Cl)s2)cc1` .
*A* F

*Q* Can you check `CCCCN(CCCC)C(=O)c1ccc(Cl)cc1Cl` next?
*A* T

* * *

# assay_name: NCI Yeast Anticancer Drug Screen. Data for the rad50 strain (AID 155);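 also: 0% = growth of vehicle-only cultures of the same strain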
# measurement_context: S. cerevisiae rad50 strain growth inhibition; at 5.0 µM (retest, dose inferred, filed as 0.5); stronger effect = higher value
Compounds without any hit were thinned out: in the full panel of roughly 79,000, 15% have a hit.
parameter: growth inhibition (%)
Answer with a number only, understood to be in %.

Consider the reported growth inhibition for these molecules:
*Q* GET /values?readout=growth inhibition&item= `c1ccc(N=Nc2ccc3ccccc3c2)cc1`
*A* 5

*Q* Similarly, `COc1ccc(C2=C/C(=C3\C(=O)Oc4ccccc4C3=O)SS2)cc1` ?
*A* 0

*Q* Likewise for `CCCCCCCCCCCC[S+](C)C` ?
*A* 31

*Q* Also check `CCCCOS(=O)(=O)c1ccc(C)cc1`
*A* -7

*Q* Lookup `O=[N+]([O-])c1cc(Br)cc2c1nc(NCCCO)c1ccccc12`
*A* 42

*Q* What do we get for `O=C(CS)Nc1ccccc1` ?
*A* 13

*Q* Quick one: `CCN(CC)CCOC(=O)Nc1cc(Cl)cc(Cl)c1`
*A* 50

*Q* Entry `CC(=O)Nc1ccc(S(=O)(=O)/N=C2\C=CC(=O)c3ccccc32)cc1` please
*A* 2

*Q* Next molecule: `CN1C(C)(C)CC(O)(C#N)CC1(C)C`
*A* 4

*Q* Proceed to O=C(CC(c1ccccc1)N1CCCCC1)OC1c2ccccc2-c2ccccc21 (configuration not stated)
*A* -2

Next:
*Q* Query (molecule): `O=C1C=C/C(=C(/c2ccc(O)c(O)c2)c2ccccc2S(=O)(=O)O)C=C1O` ; field requested: growth inhibition
*A* 1

*Q* Follow-up entry: `COc1ccc2c(c1)Cc1cc(NC(=O)N(CCCl)N=O)ccc1-2`
*A* -2

* * *

# assay_name: NCI Yeast Anticancer Drug Screen. Data for the rad50 strain (AID 155);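 also: 0% = growth of vehicle-only cultures of the same strain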
# measurement_context: S. cerevisiae rad50 strain growth inhibition; at 50.0 µM (retest, dose inferred, filed as 5.0); stronger effect = higher value
# Protocol: Growth inhibition of yeast strains with defined genetic alterations is measured as a screen for potential anti-cancer activity. Selected strains with alterations in DNA damage repair or cell cycle control were exposed to compounds and growth inhibition was measured relative to vehicle treated controls. The strain used in this assay is rad50
Compounds without any hit were thinned out: in the full panel of roughly 79,000, 15% have a hit.
Classification field: t = growth inhibition at or over 60%; f = growth inhibition under 60%.

Solved entries:
*Q* Answer whether growth inhibition of `CC(=O)c1sc(Nc2ccc(Cl)c(Cl)c2)nc1C` is greater than or equal to 60%.
*A* f

*Q* Then what about the compound OC(CBr)c1c(Br)ccc2ccccc12 (configuration not stated) ?
*A* t

*Q* Now give it for CNC(=O)NC(c1cc(OC)c(OC)c(OC)c1)c1cc2c(cc1O)OCO2 (configuration not stated) too.
*A* f

*Q* Field entry: `O=c1c2c3c(sc2nc2n1N=C(c1ccc(Br)cc1)CS2)CCCC3`
*A* f

*Q* Next compound up: `Nc1nnc(Cc2ccc(Br)cc2)o1`
*A* f

Others:
*Q* Does the compound O=C(NCCCCCN1CCC2(CCCCC2)CC1)C(c1ccccc1)C1CCCCC1 (configuration not stated) have recorded growth inhibition that is 60% or more?
*A* t

*Q* Param item: `Nc1ccc2c(c1)NCCN2`
*A* t

* * *

# assay_name: NCI Yeast Anticancer Drug Screen. Data for the mlh1 rad18 strain (AID 175)
# measurement_context: S. cerevisiae mlh1 rad18 strain growth inhibition; at 50.0 µM
About 79,000 compounds went through this panel and 15% of them were active in at least one assay; those are over-represented in the sample as a whole. Calls of active or inactive are those of the source. Cut-off read from the data, not from the text of the source: active = growth inhibition above about 70%; inactive = the rest.
Assign a class; possible classes are true (active), false (inactive)

Please review the entries below; each comes with its answer.
*Q* Which outcome was entered for the compound CN(C)CC1CCCCCCCCCCCCC(CN(C)C)C1=O (stereo not drawn) in this test?
*A* false

*Q* And then c1ccc2c(c1)CC1c3[nH]c4ccccc4c3CCN21 (stereo not drawn) , what is it?
*A* true

*Q* // repeat for C1CCC(C2=NC3CCCCC3SC2)CC1 (stereo not drawn) and report
*A* true

*Q* Then this compound: COc1ccc2c(c1)CN1C(CCC3c4ccccc4NC31)C2 (stereo not drawn)
*A* true

*Q* Ok, now `CCc1cccc(CC)c1NC1=C(Cl)C(=O)c2ccccc2C1=O`
*A* false

*Q* Note, next up: CCc1cccc(CC)c1NC(=O)C(C#N)C1=C(Cl)C(=O)c2ccccc2C1=O (stereo not drawn)
*A* true

*Q* Same read-out for `N#CSC#Cc1ccc(C#CSC#N)cc1` ?
*A* true

*Q* Okay, and `O=c1cccccc1[O-].O=c1cccccc1[O-].O=c1cccccc1[O-].[Nd+3]` ?
*A* true

Next:
*Q* What outcome does the record of this test show for `O=C(O)c1c([N+](=O)[O-])cc(C(F)(F)F)cc1[N+](=O)[O-]` ?
*A* false

*Q* Now give it for `O=C1C(Br)=C(Sc2ccc([N+](=O)[O-])cc2)C(=O)c2ccccc21` too.
*A* true

*Q* Can you check CCC(C)c1ccc(O)c(C(C)c2ccccc2)c1 (stereo not drawn) next?
*A* true

* * *

# assay_name: NCI Yeast Anticancer Drug Screen. Data for the mlh1 rad18 strain (AID 175)
# measurement_context: S. cerevisiae mlh1 rad18 strain growth inhibition; at 5.0 µM (retest, dose inferred, filed as 0.5)
This is part of a sample that, as a whole, favours compounds with a hit. Of some 79,000 tested, about 15% had one in any assay. Active and inactive are the calls of the source. Rule as the data show it: active = growth inhibition above about 70%; inactive = the rest.
# output must be one of 1 (yes) = active, 0 (no) = inactive

Past entries and their recorded results:
*Q* Tell me the assay call for `O=[N+]([O-])c1ccc2c(c1)N([O-])C1(CCCCC1)[N+]2=O` please.
*A* 0 (no)

*Q* Next record, please: `Nc1nc(N)c(N=O)c(Nc2cccc(Br)c2)n1`
*A* 0 (no)

*Q* Try `Cc1ccc([S@](=O)c2occc2C=O)cc1` next.
*A* 0 (no)

*Q* Consider next the molecule `COC(=O)c1ccc(OCCC(=O)CCl)cc1` in the same way.
*A* 0 (no)

*Q* Queued: O=C1OC(OCC#CCOC2OC(=O)C(Cl)=C2Cl)C(Cl)=C1Cl (configuration not stated)
*A* 0 (no)

Further cases:
*Q* Returns: the outcome recorded for `Cc1cc(N=[N+]=[N-])c2cc(C3CCCCC3)ccc2n1` in this assay.
*A* 0 (no)

*Q* And the next one, `COc1ccc2ccccc2c1-c1c(O)ccc2ccccc12` ?
*A* 0 (no)

*Q* Ok, now `C/C(=N\NC(=S)NC12CC3CC(CC(C3)C1)C2)c1ccccn1`
*A* 0 (no)

*Q* // same read-out, input: `OCCc1ccc(-n2cnc3c(Nc4ccc(Cl)cc4)ncnc32)cc1`
*A* 0 (no)
